Reference source: paper PMC11339918

biological target: Recombinant KLK2 (Homo sapiens); construct: made in house; host or cells: baculovirus-insect cell line system; experiment: Hydrolysis of FRET peptides by recombinant KLK2 (kinetic parameters); format: biochemical; conditions: pH 8.0, 20 mM Tris–HCl, 1 M sodium citrate, 37 °C, KLK2 1.6 nM; three enzymatic reactions, standard errors 5% or less
Non-standard residues stand in square brackets, D forms with d. No end group written: not given here. *: point of attachment. EDDnp = O=[N+]([O-])c1ccc(NCCN*)c([N+](=O)[O-])c1; 2Abz = Nc1ccccc1C(=O)O
The reader will find reported Km values listed item by item below.
Give just the numeric value; µM need not be written.

Abz-KLRXSKQ-EDDnp, X = L: FRET peptide, S1’ series, X = L ([2Abz]KLRLSKQ-EDDnp) | 3.3
Abz-KLRSXKQ-EDDnp, X = G: FRET peptide, S2’ series, X = G ([2Abz]KLRSGKQ-EDDnp) | 4.5
Abz-KLRXSKQ-EDDnp, X = Q: FRET peptide, S1’ series, X = Q ([2Abz]KLRQSKQ-EDDnp) | 6.1

The substance Abz-KLRSXKQ-EDDnp, X = Q: FRET peptide, S2’ series, X = Q ([2Abz]KLRSQKQ-EDDnp) showed Km equal to 5.2

The substance Abz-KXRSSKQ-EDDnp, X = F: FRET peptide, S2 series, X = F ([2Abz]KFRSSKQ-EDDnp) showed Km equal to 1.6

The substance Abz-KLRXSKQ-EDDnp, X = G: FRET peptide, S1’ series, X = G ([2Abz]KLRGSKQ-EDDnp) showed Km equal to 7.3

----------
target: Recombinant KLK2 (Homo sapiens); construct: made in house; host or cells: baculovirus-insect cell line system; assay: Hydrolysis of FRET peptides by recombinant KLK2 (kinetic parameters); assay type: biochemical; settings: pH 8.0, 20 mM Tris–HCl, 1 M sodium citrate, 37 °C, KLK2 1.6 nM; three enzymatic reactions, standard errors 5% or less
Non-standard residues stand in square brackets, D forms with d. No end group written: not given here. *: point of attachment. EDDnp = O=[N+]([O-])c1ccc(NCCN*)c([N+](=O)[O-])c1; 2Abz = Nc1ccccc1C(=O)O
Dear colleague, classification is by Km, with ranges listed here: zone 1 = under 4 µM, zone 2 = from 4 µM up to 7 µM, zone 3 = 7 µM and over

Some solved cases for reference:
Abz-KLRSXKQ-EDDnp, X = F: FRET peptide, S2’ series, X = F ([2Abz]KLRSFKQ-EDDnp) | zone 1
Abz-KLRSXKQ-EDDnp, X = A: FRET peptide, S2’ series, X = A ([2Abz]KLRSAKQ-EDDnp) | zone 1
Abz-KXRSSKQ-EDDnp, X = H: FRET peptide, S2 series, X = H (N-terminal Abz, C-terminal EDDnp; X = H) | zone 3

Q: Consider Abz-KLRSXKQ-EDDnp, X = R: FRET peptide, S2’ series, X = R ([2Abz]KLRSRKQ-EDDnp) . To which Km class does it belong?
Result: zone 1

Q: Consider Abz-KXRSSKQ-EDDnp, X = Y: FRET peptide, S2 series, X = Y [Abz-KXRSSKQ-EDDnp, X = Y] (Abz-KYRSSKQ-EDDnp) . To which Km class does it belong?
Result: zone 2

----------
molecular target: Recombinant KLK2 (Homo sapiens, UniProt P20151); construct: made in house; host or cells: baculovirus-insect cell line system; assay: Hydrolysis of FRET peptides by recombinant KLK2 (kinetic parameters); type: biochemical; details: pH 8.0, 20 mM Tris–HCl, 1 M sodium citrate, 37 °C, KLK2 1.6 nM; three enzymatic reactions, standard errors 5% or less
Sequence (P20151 25-261): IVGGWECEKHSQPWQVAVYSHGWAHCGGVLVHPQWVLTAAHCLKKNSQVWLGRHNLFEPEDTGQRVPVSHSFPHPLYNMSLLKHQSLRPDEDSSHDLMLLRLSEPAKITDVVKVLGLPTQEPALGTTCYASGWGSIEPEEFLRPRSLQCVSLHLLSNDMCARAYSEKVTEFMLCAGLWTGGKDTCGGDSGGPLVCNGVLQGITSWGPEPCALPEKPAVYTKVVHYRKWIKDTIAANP
Non-standard residues stand in square brackets, D forms with d. No end group written: not given here. *: point of attachment. EDDnp = O=[N+]([O-])c1ccc(NCCN*)c([N+](=O)[O-])c1; 2Abz = Nc1ccccc1C(=O)O
Lab note: anything with kcat below 7 s^–1 is marked 1 (yes); values at 7 s^–1 or higher are marked 0 (no).

Q: Hello, I'm reviewing records and need to know if kcat of Abz-KLRSXKQ-EDDnp, X = R: FRET peptide, S2’ series, X = R ([2Abz]KLRSRKQ-EDDnp) is below 7 s^–1. Could you check?
Result: 1 (yes)

Q: Hello, I'm reviewing records and need to know if kcat of Abz-KLRXSKQ-EDDnp, X = R: FRET peptide, S1’ series, X = R ([2Abz]KLRRSKQ-EDDnp) is below 7 s^–1. Could you check?
Result: 0 (no)

Q: Hello, I'm reviewing records and need to know if kcat of Abz-KXRSSKQ-EDDnp, X = V: FRET peptide, S2 series, X = V (Abz-KVRSSKQ-EDDnp) is below 7 s^–1. Could you check?
Result: 0 (no)

Q: Hello, I'm reviewing records and need to know if kcat of Abz-KLRSXKQ-EDDnp, X = G: FRET peptide, S2’ series, X = G ([2Abz]KLRSGKQ-EDDnp) is below 7 s^–1. Could you check?
Result: 1 (yes)

Q: Hello, I'm reviewing records and need to know if kcat of Abz-XLRSSKQ-EDDnp, X = V: FRET peptide, S3 series, X = V [Abz-XLRSSKQ-EDDnp, X = V] (Abz-VLRSSKQ-EDDnp) is below 7 s^–1. Could you check?
Result: 0 (no)

Q: Hello, I'm reviewing records and need to know if kcat of Abz-KXRSSKQ-EDDnp, X = I: FRET peptide, S2 series, X = I [Abz-KXRSSKQ-EDDnp, X = I] (Abz-KIRSSKQ-EDDnp) is below 7 s^–1. Could you check?
Result: 1 (yes)

----------
biological target: Recombinant KLK2 (Homo sapiens); construct: made in house; host or cells: baculovirus-insect cell line system; experiment: Hydrolysis of FRET peptides by recombinant KLK2 (kinetic parameters); assay type: biochemical; settings: pH 8.0, 20 mM Tris–HCl, 1 M sodium citrate, 37 °C, KLK2 1.6 nM; three enzymatic reactions, standard errors 5% or less
Non-standard residues stand in square brackets, D forms with d. No end group written: not given here. *: point of attachment. EDDnp = O=[N+]([O-])c1ccc(NCCN*)c([N+](=O)[O-])c1; 2Abz = Nc1ccccc1C(=O)O
Note to self: values exactly at 2000 s^–1 mM^–1 are rule met. So kcat/Km at or above 2000 s^–1 mM^–1 is rule met, below is rule not met.

Abz-XLRSSKQ-EDDnp, X = F: FRET peptide, S3 series, X = F [Abz-XLRSSKQ-EDDnp, X = F] (Abz-FLRSSKQ-EDDnp) | rule not met
Abz-KLRSSKQ-EDDnp [parent FRET peptide, cleaved at the R–S peptide bond by KLK2] | rule not met
Abz-KXRSSKQ-EDDnp, X = R: FRET peptide, S2 series, X = R (Abz-KRRSSKQ-EDDnp) | rule not met

Field: next substance
Q: Is kcat/Km for Abz-KXRSSKQ-EDDnp, X = E: FRET peptide, S2 series, X = E [Abz-KXRSSKQ-EDDnp, X = E] ([2Abz]KERSSKQ-EDDnp) at or above 2000 s^–1 mM^–1?
Result: rule not met

----------
target: Recombinant KLK2 (Homo sapiens); construct: made in house; host or cells: baculovirus-insect cell line system; experiment: Hydrolysis of FRET peptides by recombinant KLK2 (kinetic parameters); assay type: biochemical; conditions: pH 8.0, 20 mM Tris–HCl, 1 M sodium citrate, 37 °C, KLK2 1.6 nM; three enzymatic reactions, standard errors 5% or less
Non-standard residues stand in square brackets, D forms with d. No end group written: not given here. *: point of attachment. EDDnp = O=[N+]([O-])c1ccc(NCCN*)c([N+](=O)[O-])c1; 2Abz = Nc1ccccc1C(=O)O
parameter: kcat (s^–1)
Give just the numeric value; s^–1 need not be written.

In the examples that follow, each entry is paired with its recorded kcat.
Abz-KLRXSKQ-EDDnp, X = E: FRET peptide, S1’ series, X = E ([2Abz]KLRESKQ-EDDnp) | 10.3
Abz-KLRSXKQ-EDDnp, X = N: FRET peptide, S2’ series, X = N ([2Abz]KLRSNKQ-EDDnp) | 4.9
Abz-KXRSSKQ-EDDnp, X = F: FRET peptide, S2 series, X = F ([2Abz]KFRSSKQ-EDDnp) | 4.1
Abz-KLRSXKQ-EDDnp, X = E: FRET peptide, S2’ series, X = E ([2Abz]KLRSEKQ-EDDnp) | 7.1
Abz-KXRSSKQ-EDDnp, X = K: FRET peptide, S2 series, X = K (Abz-KKRSSKQ-EDDnp) | 3.0
Abz-KLRXSKQ-EDDnp, X = H: FRET peptide, S1’ series, X = H (N-terminal Abz, C-terminal EDDnp; X = H) | 8.0

Continue with the substance presented below.
The substance Abz-KLRSXKQ-EDDnp, X = Q: FRET peptide, S2’ series, X = Q ([2Abz]KLRSQKQ-EDDnp) showed kcat equal to 6.5
